# STUDY_TARGET: T1, mouse programmed cell death protein 1 Fc fusion protein (mPD-1-Fc), mPD-1 C60S (aa 25-167) (Mus musculus, UniProt Q02242, stabilised)
# T1 construct: not cleaved; source: Expi293F, purified (Protein A, SEC; dimeric fraction); not shown: Fc (human), C-terminal, kept
# ASSAY: SPR; Carterra LSA; Fab from the ammonium sulfate precipitate of the culture supernatant immobilised on a NiHC200M chip; hPD-1 (1-1024 nM) or mPD-1-Fc (4-1024 nM) as analyte, fourfold dilution series, no regeneration; HBS-EP pH 7.4, 25 °C; medians over the spots of a construct, KD = koff/kon
# CONDITION: one partner purified
Task for the reader: assign each of the following binders its reported koff.
Could you give the number and then its unit, please?

Quick one: koff for toripalimab Fab L.N33Y (Fab, V domains shown, as the heavy chain of Sm3; light chain of Sm3 with this change; numbers count from the chain's first residue; source: Brevibacillus, culture supernatant (ammonium sulfate precipitate); not shown: 6xHis, C-terminal, kept; 6xHN, C-terminal, kept) VH: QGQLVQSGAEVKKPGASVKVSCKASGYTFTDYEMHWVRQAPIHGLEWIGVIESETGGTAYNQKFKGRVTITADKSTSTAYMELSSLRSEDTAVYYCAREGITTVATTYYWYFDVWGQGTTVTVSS VL: DVVMTQSPLSLPVTLGQPASISCRSSQSIVHSYGNTYLEWYLQKPGQSPQLLIYKVSNRFSGVPDRFSGSGSGTDFTLKISRVEAEDVGVYYCFQGSHVPLTFGQGTKLEIK ?
0.00979 s⁻¹

Can you share its koff? I mean this binder: toripalimab Fab L.S61A (Fab, V domains shown, as the heavy chain of Sm3; light chain of Sm3 with this change; numbers count from the chain's first residue; source: Brevibacillus, culture supernatant (ammonium sulfate precipitate); not shown: 6xHis, C-terminal, kept; 6xHN, C-terminal, kept) VH: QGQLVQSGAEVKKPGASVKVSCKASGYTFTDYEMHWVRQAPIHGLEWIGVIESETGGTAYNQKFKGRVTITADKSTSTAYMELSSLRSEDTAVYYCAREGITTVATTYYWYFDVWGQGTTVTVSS VL: DVVMTQSPLSLPVTLGQPASISCRSSQSIVHSNGNTYLEWYLQKPGQSPQLLIYKVSNRFAGVPDRFSGSGSGTDFTLKISRVEAEDVGVYYCFQGSHVPLTFGQGTKLEIK
0.00447 s⁻¹

Recorded koff for toripalimab Fab H.Y32A (Fab, V domains shown, heavy chain of Sm3 with this change; numbers count from the chain's first residue; as the light chain of Sm3; source: Brevibacillus, culture supernatant (ammonium sulfate precipitate); not shown: 6xHis, C-terminal, kept; 6xHN, C-terminal, kept) VH: QGQLVQSGAEVKKPGASVKVSCKASGYTFTDAEMHWVRQAPIHGLEWIGVIESETGGTAYNQKFKGRVTITADKSTSTAYMELSSLRSEDTAVYYCAREGITTVATTYYWYFDVWGQGTTVTVSS VL: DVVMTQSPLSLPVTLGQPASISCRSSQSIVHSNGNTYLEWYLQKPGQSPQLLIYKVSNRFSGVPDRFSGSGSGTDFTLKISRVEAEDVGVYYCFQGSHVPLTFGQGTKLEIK , please?
0.0613 s⁻¹

Can you look up the measured koff of toripalimab Fab L.I29Y (Fab, V domains shown, as the heavy chain of Sm3; light chain of Sm3 with this change; numbers count from the chain's first residue; source: Brevibacillus, culture supernatant (ammonium sulfate precipitate); not shown: 6xHis, C-terminal, kept; 6xHN, C-terminal, kept) VH: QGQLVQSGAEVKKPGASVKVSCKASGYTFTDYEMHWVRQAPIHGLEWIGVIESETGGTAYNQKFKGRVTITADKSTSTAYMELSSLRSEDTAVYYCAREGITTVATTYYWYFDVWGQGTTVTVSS VL: DVVMTQSPLSLPVTLGQPASISCRSSQSYVHSNGNTYLEWYLQKPGQSPQLLIYKVSNRFSGVPDRFSGSGSGTDFTLKISRVEAEDVGVYYCFQGSHVPLTFGQGTKLEIK for me?
0.00575 s⁻¹

Any idea what its koff is? The binder is toripalimab Fab L.F94A (Fab, V domains shown, as the heavy chain of Sm3; light chain of Sm3 with this change; numbers count from the chain's first residue; source: Brevibacillus, culture supernatant (ammonium sulfate precipitate); not shown: 6xHis, C-terminal, kept; 6xHN, C-terminal, kept) VH: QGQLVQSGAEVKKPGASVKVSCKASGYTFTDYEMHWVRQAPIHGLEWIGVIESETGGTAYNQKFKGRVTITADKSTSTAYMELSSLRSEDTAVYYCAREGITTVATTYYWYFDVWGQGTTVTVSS VL: DVVMTQSPLSLPVTLGQPASISCRSSQSIVHSNGNTYLEWYLQKPGQSPQLLIYKVSNRFSGVPDRFSGSGSGTDFTLKISRVEAEDVGVYYCAQGSHVPLTFGQGTKLEIK
0.000967 s⁻¹
